The reported numbers originate from patent US7329681B2.

Some compounds, each annotated with its measured Ki.
Target or test system: IMPDH human type II (Homo sapiens, UniProt P12268)
Assay comment: IMPDH activity inhibition assay (spectrophotometric, NADH formation at 340 nm)
Type: biochemical
Measurement setup: IMPDH human type II, 15 to 50 nM enzyme, 37° C., tight-binding fit (Henderson); read-out: Ki
Method: We have measured the inhibition constants of each compound against IMPDH using an adaptation of the method first reported by […]. Moyed, and […]. Biol. Chem., 226, p. 339 (1957)]. We measured the inhibition constants of the compounds listed in Table III utilizing the following protocol: IMP dehydrogenase activity was assayed following an adaptation of the method first reported by […]. […] For reading in a standard spectrophotometer (path length 1 cm) the final volume in the cuvette is 1.0 ml. […]

Some solved cases for reference:
1. COc1cc(NC(=O)Nc2cccc(CN(C)C(=O)OC(C)(C)C)c2)ccc1-c1cnco1 ... 51 to 1000 nM
2. COc1ccc(NC(=O)Nc2cccc(Br)c2)cc1OC ... 1000 to 10000 nM
3. COC(=O)c1cc(NC(=O)Nc2cccc(C)c2)ccc1-c1cnco1 ... 1000 to 10000 nM
4. Cc1ccc(NC(=O)Nc2ccc(-c3cnco3)c(Cl)c2)s1 ... 1000 to 10000 nM
5. COc1cc(NC(=O)Nc2cccc(N(C)C(=O)C(F)(F)F)c2)ccc1-c1cnco1 ... 0.01 to 50 nM
6. O=C(Nc1ccc(-c2cnco2)cc1)Nc1ccc2c(c1)OCCO2 ... > 10000 nM
7. CN(C)c1cccc(NC(=O)Nc2ccc(-c3cnco3)cc2)c1 ... 1000 to 10000 nM
8. O=C(Nc1ccc(-c2cnco2)cc1)Nc1cccc(C(F)(F)F)c1 ... 1000 to 10000 nM

Req: I am curious: what Ki value has been reported for `Nc1cccc(NC(=O)Nc2ccc(-c3cnco3)c(Cl)c2)c1` ?
Resp: 51 to 1000 nM

Req: I am curious: what Ki value has been reported for `COc1cc(NC(=O)Nc2cccc(CNC(=O)OC(C)(C)C)c2)ccc1-c1cnco1` ?
Resp: 0.01 to 50 nM
